Collected from the literature: IC50 of various compounds toward Tyrosine-protein kinase receptor UFO (Homo sapiens, UniProt P30530).

INSERT INTO measurements (compound, target_under_test, quantity_measured, result) VALUES
  ('C[C@@H](CC(F)(F)F)Nc1ncc2c(-c3ccnc([S@](C)(=N)=O)c3)cc([C@H]3CC[C@H](O)CC3)n2n1', 'Tyrosine-protein kinase receptor UFO (Homo sapiens, UniProt P30530)', 'IC50', '≤ 100 nM'),
  ('COC[C@H](C)Nc1ncc2c(-c3ccnc(S(C)(=O)=O)c3)cc(C3CCC(O)CC3)n2n1 (stereo partly shown)', 'Tyrosine-protein kinase receptor UFO (Homo sapiens, UniProt P30530)', 'IC50', '≤ 100 nM'),
  ('COC[C@H](C)Nc1ncc2c(OC3CCOCC3)ncc(-c3ccc(N)nc3)c2n1', 'Tyrosine-protein kinase receptor UFO (Homo sapiens, UniProt P30530)', 'IC50', '1000 to 10000 nM');

Here is the next item to consider.
Exam item: So what's the measured IC50 for this one? "COCCOc1nc(Nc2ccc(CN3CCN(C)CC3)cc2)nc2[nH]cc(-c3ccc(OCc4cc(C)ccn4)cc3F)c12"
Marked response: < 30 nM

====

Collected from the literature: IC50 of various compounds toward Tyrosine-protein kinase receptor UFO (Homo sapiens, UniProt P30530).

INSERT INTO results (compound, target_under_test, result) VALUES
  ('COC[C@H](C)Nc1ncc2c(-c3cnn(Cc4ccc(S(C)(=O)=O)cc4)c3)cc([C@H]3CC[C@H](O)CC3)n2n1', 'Tyrosine-protein kinase receptor UFO (Homo sapiens, UniProt P30530)', '≤ 100 nM'),
  ('CCCOc1cc2ncnc(Oc3ccc(NC(=O)c4c(C)n(C)c5ccc(OC(F)(F)F)cc5c4=O)cc3F)c2cc1OC', 'Tyrosine-protein kinase receptor UFO (Homo sapiens, UniProt P30530)', '6.1 nM'),
  ('CCc1nc(C(N)=O)c(Nc2ccc3c(c2)OC[C@H]2CN(C4CCN(C)CC4)CCN32)nc1NC1CCOCC1', 'Tyrosine-protein kinase receptor UFO (Homo sapiens, UniProt P30530)', '< 10 nM'),
  ('CCCCC[C@H](C)Nc1ncc2c(=O)n(C3CCOCC3)cc([C@H]3CC[C@H](O)CC3)c2n1', 'Tyrosine-protein kinase receptor UFO (Homo sapiens, UniProt P30530)', '100 to 1000 nM'),
  ('CCCCNc1ncc2c(-c3ccc(S(=O)(=O)N4CCOCC4)cc3)cc([C@H]3CC[C@H](O)CC3)n2n1', 'Tyrosine-protein kinase receptor UFO (Homo sapiens, UniProt P30530)', '≤ 100 nM');

Exam item: What measured IC50 is associated with "CC(C)Nc1ncc2c(OC3CCOCC3)ncc(-c3cccc(S(C)(=O)=O)c3)c2n1" on Tyrosine-protein kinase receptor UFO (Homo sapiens, UniProt P30530)?
Marked response: 100 to 1000 nM

Exam item: What measured IC50 is associated with "CC(=O)N1CCC(n2cc(-c3cnc(N)c(-c4ncc(-c5ccc(Cl)cc5)o4)c3)cn2)CC1" on Tyrosine-protein kinase receptor UFO (Homo sapiens, UniProt P30530)?
Marked response: > 10000 nM

====

Collected from the literature: IC50 of various compounds toward Tyrosine-protein kinase receptor UFO (Homo sapiens, UniProt P30530).

Known results for compounds:
INSERT INTO measurements (compound, result) VALUES
  ('CCc1ccc2c(c1)c(=O)c(C(=O)Nc1ccc(Oc3ncnc4cc(OCCCOC)c(OC)cc34)c(F)c1)c(C)n2C', '5 nM'),
  ('CC(Cc1ccc(F)cc1)Nc1ncc2c(-c3cnn(C4COC4)c3)cc(C3CCC(O)CC3)n2n1 (racemic)', '≤ 100 nM'),
  ('CCN1CCC(n2cc(-c3cnc(N)c(-c4nnc(-c5c(Cl)cccc5Cl)o4)c3)cn2)CC1', '< 500 nM');

Exam item: What measured IC50 is associated with "COc1cc2nccc(Oc3ccc(NC(=O)c4nn(CC5CCOCC5)cc(-c5ccc(C)cc5)c4=O)nc3)c2cc1OC" on Tyrosine-protein kinase receptor UFO (Homo sapiens, UniProt P30530)?
Marked response: 7 nM
